Each recorded value in this set is attributed to ChEMBL document CHEMBL4364278.

# bioavailability per record follows
- Test details: Oral bioavailability in rat at 10 mg/kg
- Assay type: ADME, organism-based
- Reported conditions: in vivo

- Chemical smiles: "Cc1cc2ccnc(Nc3ccc(Oc4ccnc(N)c4Cl)c(F)c3)c2c(=O)n1-c1ccc(F)cc1"
  Measurement units: "%"
  bioavailability: 51
- Chemical smiles: "Cc1cc2ccnc(Nc3ccc(Oc4ccnc(N)c4I)c(F)c3)c2c(=O)n1-c1ccc(F)cc1"
  Measurement units: "%"
  bioavailability: 49
- Chemical smiles: "Nc1nccc(Oc2ccc(Nc3nccc4ccn(-c5ccc(F)cc5)c(=O)c34)cc2F)c1Cl"
  Measurement units: "%"
  bioavailability: 54
